System: BDF1 mice, P388 leukemia ip, median survival T/C
PROCEDURE SUMMARY: NCI In Vivo Anticancer Drug Screen. Data for tumor model P388 Leukemia (intraperitoneal) in B6D2F1 (BDF1) mice
ASSAY CONDITIONS: endpoint: median survival time; dose: 200.0 mg/kg/injection; schedule: Q01DX009 (ip); vehicle: saline with Tween-80; higher = longer survival
Toxic doses and inconclusive results are not listed.
MEASURED ENDPOINT: T/C

>>> value_reported("CCOC(=O)c1c(C)cc(C)nc1[S][Sn]([Br])([Br])[S]c1nc(C)cc(C)c1C(=O)OCC")
"106 % of control"
>>> value_reported("CC(=O)Oc1ccc2c(c1)CCC1C2CCC2(C)C1CCC21CO1 (stereo not drawn)")
"98 % of control"
>>> value_reported("C=Cn1ccnc1C(O)(c1ccccc1)c1ccc(C(C)(C)C)cc1 (stereo not drawn)")
"93 % of control"
>>> value_reported("S=c1cc(-c2ccco2)ss1")
"102 % of control"
>>> value_reported("COc1ccccc1C(=O)c1ccccc1Cc1cccc2ccccc12")
"92 % of control"
>>> value_reported("COc1ccccc1N1C(=O)CC(Sc2ccccc2N)C1=O (stereo not drawn)")
"105 % of control"
>>> value_reported("CCCCCC#CC1OC12CCCCC2 (stereo not drawn)")
"102 % of control"
>>> value_reported("CN(C)c1ccc(/C=C/c2ccnc3cc(Cl)ccc23)cc1")
"93 % of control"
>>> value_reported("Cc1nc2nc(N)nc(N)c2nc1C")
"100 % of control"
>>> value_reported("CCOC(=O)C(OCc1ccccc1)C(=O)OCC")
"104 % of control"
>>> value_reported("O=C(O)Cc1nc(Cl)ccc1Cl")
"92 % of control"
>>> value_reported("Cc1ccc(-n2c(O)c(C=N)c(=O)[nH]c2=O)cc1")
"113 % of control"
>>> value_reported("O=C1CCC(NC2OC(=O)c3ccccc32)C(=O)O1 (stereo not drawn)")
"109 % of control"

* * *

System: BDF1 mice, P388 leukemia ip, median survival T/C
PROCEDURE SUMMARY: NCI In Vivo Anticancer Drug Screen. Data for tumor model P388 Leukemia (intraperitoneal) in B6D2F1 (BDF1) mice
ASSAY CONDITIONS: endpoint: median survival time; dose: 100.0 mg/kg/injection; schedule: Q04DX003 (ip); vehicle: Klucel (hydroxypropylcellulose) (HPC); higher = longer survival
Toxic doses and inconclusive results are not listed.
MEASURED ENDPOINT: T/C

>>> value_reported("Cc1ccc(C2(C(=O)O)CCCCC2)cc1")
"109 % of control"
>>> value_reported("COc1cc(OC)c(Br)c(OC)c1")
"112 % of control"
>>> value_reported("CCC(c1ccc2cc(OC)ccc2c1)C(CC(=O)O)C(=O)OC (stereo not drawn)")
"87 % of control"
>>> value_reported("C[C@]12CC[C@H](O)C[C@@H]1CC[C@@H]1[C@@H]2C(=O)C[C@@]2(C)[C@H]1CC[C@]2(O)C(=O)CBr")
"100 % of control"
>>> value_reported("C[C@]12CC[C@@H]3c4ccc(O)cc4CC[C@H]3[C@@H]1CC[C@@H]2O")
"100 % of control"
>>> value_reported("O=S(=O)(Nc1c(Cl)c(Cl)c(Cl)c(Cl)c1NS(=O)(=O)c1ccccc1)c1ccccc1")
"100 % of control"
>>> value_reported("CC(=O)OCC(=O)[C@@]1(O)CC[C@H]2[C@@H]3CCC4=CC(=O)C=C[C@]4(C)[C@H]3C(=O)C[C@@]21C")
"100 % of control"
>>> value_reported("O=C1c2ccccc2C(=O)N1CNc1ccc(Cc2ccc(NCN3C(=O)c4ccccc4C3=O)c(Cl)c2)cc1Cl")
"100 % of control"

* * *

System: BDF1 mice, P388 leukemia ip, median survival T/C
PROCEDURE SUMMARY: NCI In Vivo Anticancer Drug Screen. Data for tumor model P388 Leukemia (intraperitoneal) in B6D2F1 (BDF1) mice
ASSAY CONDITIONS: endpoint: median survival time; dose: 50.0 mg/kg/injection; schedule: Q04DX003 (ip); vehicle: saline with Tween-80
Inconclusive results and toxic doses are left out. Rule for the calls: active = survival T/C of 150% or more; inactive = T/C below 125% in these data.
Possible outcomes: active, inactive

>>> class("CCCCCC(C)C(=O)CCCC (configuration not stated) (tested in a mixture with another compound)")
"inactive"
>>> class("CCCCCCCCCCCCCCCC(=O)OCCCCCCCCCC")
"inactive"
>>> class("C=CS(=O)(=O)Cc1ccccc1")
"inactive"
>>> class("C[S+](C)N(c1ccccc1)C(C)(C)C")
"inactive"
>>> class("CCCCCCCCCCCCCCCC(=O)OCC1OC(n2ccc(N)nc2=O)C(O)C1O (configuration not stated)")
"active"
>>> class("O=C1CCC23/C=C/C(=O)NCCCCNCCCNC(=O)/C=C/c4ccc(c2c4)OC3C1 (configuration not stated)")
"inactive"
>>> class("Cc1ccc(NC(=O)C2CCC(C)(C(=O)O)C2(C)C)cc1 (configuration not stated)")
"inactive"

* * *

System: BDF1 mice, P388 leukemia ip, median survival T/C
PROCEDURE SUMMARY: NCI In Vivo Anticancer Drug Screen. Data for tumor model P388 Leukemia (intraperitoneal) in B6D2F1 (BDF1) mice
ASSAY CONDITIONS: endpoint: median survival time; dose: 200.0 mg/kg/injection; schedule: Q04DX003 (ip); vehicle: saline; higher = longer survival
Toxic doses and inconclusive results are not listed.
MEASURED ENDPOINT: T/C

>>> value_reported("O=C(O)C(O)C(O)C(=O)O (stereo not drawn)")
"100 % of control"
>>> value_reported("C#CCOCC(O)CN (stereo not drawn)")
"100 % of control"
>>> value_reported("O.O=C(O)O.O=C(O)O.O=C(O)O.[Zr]")
"100 % of control"
>>> value_reported("C#CC(C)(C)OCC(O)CCl (stereo not drawn)")
"100 % of control"
>>> value_reported("O=S(=O)(O)c1cc(O)c2cc(Nc3ccccc3)ccc2c1")
"109 % of control"
>>> value_reported("CN1CCC=C(C(=O)N(c2ccccc2)c2ccccc2)C1")
"100 % of control"
>>> value_reported("CCCCCCCCCCCCCCCCN(C)c1ccc(C=O)cc1")
"109 % of control"
>>> value_reported("OCC1(O)CC(O)C(O)(CO)CC1O (stereo not drawn)")
"95 % of control"
>>> value_reported("COc1cc(O)c(C(=O)c2ccccc2)cc1S(=O)(=O)O")
"100 % of control"
>>> value_reported("NC(=O)CC1=NCCc2ccccc21")
"113 % of control"
>>> value_reported("NNC(=O)CCCCCC(=O)NN")
"113 % of control"
>>> value_reported("CCOC(=O)C1CC1C(=O)O (stereo not drawn)")
"114 % of control"
>>> value_reported("COCC(O)CC#N (stereo not drawn)")
"95 % of control"

* * *

Test system: BDF1 mice, P388 leukemia ip, median survival T/C
PROCEDURE SUMMARY: NCI In Vivo Anticancer Drug Screen. Data for tumor model P388 Leukemia (intraperitoneal) in B6D2F1 (BDF1) mice
ASSAY CONDITIONS: endpoint: median survival time; dose: 200.0 mg/kg/injection; schedule: Q01DX009 (ip); vehicle: saline; higher = longer survival
Inconclusive results and toxic doses are left out.
// reported T/C for each item listed
MEASURED ENDPOINT: T/C

>>> value_reported("CC(O)C(C)(O)C(=O)O (configuration not stated)")
"91 % of control"
>>> value_reported("CCN(CC)C(=O)Cn1cc(F)c(N)nc1=O")
"90 % of control"
>>> value_reported("O=C(Oc1ccc([N+](=O)[O-])cc1)c1ccc(C[P+](c2ccccc2)(c2ccccc2)c2ccccc2)cc1")
"100 % of control"
>>> value_reported("COc1cccc(CCCC(=O)CS(C)=O)c1 (configuration not stated)")
"109 % of control"
>>> value_reported("CCCCn1cnc2c(SC)ncnc21")
"104 % of control"
>>> value_reported("O=C(O)c1cc(O)c(O)c(O)c1")
"104 % of control"
>>> value_reported("CC/C(=N\\NS(=O)(=O)c1ccc(C)cc1)c1ccc(OC)c(OC)c1")
"92 % of control"
>>> value_reported("Nc1ccc(CCc2ccc(Cl)cc2S(=O)(=O)F)c(Cl)c1")
"91 % of control"
>>> value_reported("CC(O)C(F)(F)C(F)(F)C(F)(F)C(C)O (configuration not stated)")
"104 % of control"
>>> value_reported("Nc1ccc(C(=O)Nc2ccc(Nc3ccncc3)cc2)c([N+](=O)[O-])c1")
"111 % of control"
>>> value_reported("Cc1nc2n[nH]c(N)c2nc1C")
"100 % of control"
>>> value_reported("O=S(=O)(O)c1ccc(CCCCCCl)cc1")
"100 % of control"
>>> value_reported("O=c1[nH]cnc2c1ncn2C1OC(CF)C(O)C1O (configuration not stated)")
"91 % of control"
>>> value_reported("CC(O)C(=O)Oc1ccccc1 (configuration not stated)")
"109 % of control"
>>> value_reported("COC(=O)C1CSC2(CCCN(Cc3ccccc3)C2)N1 (configuration not stated)")
"96 % of control"
>>> value_reported("CCN(/C=C/C=C1C(=O)N(C)C(=O)N(C)C1=O)CC")
"100 % of control"
>>> value_reported("CC(C)=CC(=O)OCC1CC[N+](C)([O-])C1 (configuration not stated)")
"91 % of control"
>>> value_reported("O=C(O)C(O)C(O)C(=O)O (configuration not stated)")
"110 % of control"
>>> value_reported("CC1(C)Cc2cc3cc(Cl)ccc3nc2-c2ccccc21")
"105 % of control"
>>> value_reported("Fc1ccc(C(Cl)Cl)cc1")
"109 % of control"
>>> value_reported("CC(=O)c1ccc[n+](C)c1")
"95 % of control"
>>> value_reported("N[C@H](C(=O)O)[C@H]1ON=C(Cl)[C@@H]1O")
"90 % of control"
